# experiment: recombinant barcode read abundance after kanamycin selection (control-corrected) (log10(CPM+1)); higher = more efficient recombination; sequences stand for … in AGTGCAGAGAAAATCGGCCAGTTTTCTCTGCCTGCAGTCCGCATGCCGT…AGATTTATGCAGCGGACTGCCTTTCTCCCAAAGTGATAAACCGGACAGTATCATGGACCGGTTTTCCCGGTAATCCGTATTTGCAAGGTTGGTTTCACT; site = the 11-nt target
recombinant barcode read abundance (log10) below 0.09 gives FALSE; recombinant barcode read abundance (log10) at or above it gives TRUE.

Below, 9 sequences whose answers are already recorded.
ACAGGAGCTTGGGTTCTAACCTGTTGCGG (site ACACGACCTCC): TRUE
TGTCCTGCTTGGGTTCTAACCTGTTGCCT (site TGTCCTGCTAG): TRUE
CACAGTGCTTGGGTTCTAACCTGTTGCCT (site CAGAGTACTAG): TRUE
TCCGAAGCTTGGGTTCTAACCTGTTGCCT (site GACGAAGCTAG): TRUE
ATCGATGCTTGGGTTCTAACCTGTTGCCT (site ATCGATGCTAG): TRUE
CTATTTACTTGGGTTCTAACCTGTTGCGG (site TGTCGGCCTAA): FALSE
CGATTACCTTGGGTTCTAACCTGTTGCCT (site CGATTAACTAG): FALSE
CGGATGGCTTGGGTTCTAACCTGTTGCCT (site CGGATCGCTAG): FALSE
TCACTTGCTTGGGTTCTAACCTGTTGCCT (site TCACGTGCTAG): TRUE

Kindly review the next sequence as well.
Exercise: Determine whether measured recombinant barcode read abundance (log10) meets or exceeds 0.09 for GCACAGACTTGGGTTCTAACCTGTTGCCT (site GCACAGACTAG)
Key: TRUE

---

# experiment: recombinant barcode read abundance after kanamycin selection (control-corrected) (log10(CPM+1)); higher = more efficient recombination; sequences stand for … in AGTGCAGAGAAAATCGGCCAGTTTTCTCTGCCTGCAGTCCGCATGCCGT…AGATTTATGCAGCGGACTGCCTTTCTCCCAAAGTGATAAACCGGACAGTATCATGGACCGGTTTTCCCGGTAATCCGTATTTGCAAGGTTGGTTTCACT; site = the 11-nt target
Mark true (1) for reported recombinant barcode read abundance (log10) of 0.2 or greater; mark false (0) for anything smaller.

Here are 4 sequences together with their reported answers.
CGGAAGTCTTGGGTTCTAACCTGTTGCCT (site CGGAAGCCTAG): true (1)
CAATGGCCTTGGGTTCTAACCTGTTGCCT (site CAATGGCCTAG): true (1)
ACCCAATCTTGGGTTCTAACCTGTTGCAC (site TAGGCTACTTG): false (0)
CCTCGATCTTGGGTTCTAACCTGTTGCAT (site TCTCGATCTAT): false (0)

Lab note: next sequence to report on.
Exercise: Please tell me: is the sequence GGGGCGTCTTGGGTTCTAACCTGTTGCCG (site GGGGCGTCTCG) at or over 0.2 in terms of recombinant barcode read abundance (log10)?
Key: true (1)

---

# experiment: recombinant UMI read abundance after kanamycin selection (control-corrected) (log10(CPM+1)); higher = more efficient recombination; extreme values may be limits of the assay; sequences stand for … in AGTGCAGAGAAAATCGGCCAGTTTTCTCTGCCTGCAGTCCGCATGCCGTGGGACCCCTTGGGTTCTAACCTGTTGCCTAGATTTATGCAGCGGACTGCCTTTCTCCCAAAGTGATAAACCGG…AGGTTGGTTTCACT; site = the 11-nt donor
readoutKind: recombinant UMI read abundance (log10)
Just the number, please, no unit after it.

The examples below pair each entry with its known result.
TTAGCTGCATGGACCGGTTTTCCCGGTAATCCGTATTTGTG (site TTAGCTGCTGA): 0.631
GACACACCATGGACCGGTTTTCCCGGTAATCCGTATTTGGT (site GACATACCTAC): 0.00315
GATCCCTCATGGACCGGTTTTCCCGGTAATCCGTATTTGGC (site GATCCCTCTGC): 0.839
AGTAATGCATGGACCGGTTTTCCCGGTAATCCGTATTTGAG (site AGTAATGCTCT): 2.15
CCCATAACATGGACCGGTTTTCCCGGTAATCCGTATTTGTC (site CCCATAGCTGA): 0
TAGGAAGCATGGACCGGTTTTCCCGGTAATCCGTATTTGCG (site TAGGAAACTCG): 2.32

Exercise: Given the entry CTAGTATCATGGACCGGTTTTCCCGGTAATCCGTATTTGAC (site CTAGTTTCTGT) , report its measured recombinant UMI read abundance (log10).
Key: 0

Exercise: Endpoint output: recombinant UMI read abundance (log10) of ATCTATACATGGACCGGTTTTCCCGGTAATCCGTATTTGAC (site CTCTATACTGT) . Value?
Key: 2.17

Exercise: Would you mind telling me what recombinant UMI read abundance (log10) value was observed for AACGGTCCATGGACCGGTTTTCCCGGTAATCCGTATTTGAT (site AACTGTCCTAT) ?
Key: 0.145

---

Each item that follows carries a reported recombinant UMI read abundance (log10).
# experiment: recombinant UMI read abundance after kanamycin selection (control-corrected) (log10(CPM+1)); higher = more efficient recombination; extreme values may be limits of the assay; sequences stand for … in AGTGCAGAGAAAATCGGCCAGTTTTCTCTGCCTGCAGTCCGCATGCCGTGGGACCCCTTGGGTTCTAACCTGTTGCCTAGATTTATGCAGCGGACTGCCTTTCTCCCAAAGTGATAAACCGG…AGGTTGGTTTCACT; site = the 11-nt donor
Answer with a number only.

TTACCTGCATGGACCGGTTTTCCCGGTAATCCGTATTTGTG (site TTAGCTGCTCA): 0.00404
CTACTATCATGGACCGGTTTTCCCGGTAATCCGTATTTGCC (site CTACTATCTGG): 2.95
TTGCTAGCATGGACCGGTTTTCCCGGTAATCCGTATTTGAA (site TGGCTAGCTTT): 0.0255

Exercise: What measured recombinant UMI read abundance (log10) goes with GGAGTGGCATGGACCGGTTTTCCCGGTAATCCGTATTTGCT (site GGAGTGGCTAA) ?
Key: 0.463

Exercise: # input sequence: ACTACCCCATGGACCGGTTTTCCCGGTAATCCGTATTTGAC (site ACTACCCCTGT) ; wanted: its recombinant UMI read abundance (log10)
Key: 0.736

Exercise: Can you look up the measured recombinant UMI read abundance (log10) of GCTTGGACATGGACCGGTTTTCCCGGTAATCCGTATTTGAC (site GTTTGGACTGT) for me?
Key: 0.707

Exercise: Dear colleague, I am looking for the recorded recombinant UMI read abundance (log10) of the following sequence: AGGAAGGCATGGACCGGTTTTCCCGGTAATCCGTATTTGCT (site AGGAAGGCTAG)
Key: 2.27

---

Listed next: entries and their corresponding recombinant barcode read abundance (log10).
# experiment: recombinant barcode read abundance after kanamycin selection (control-corrected) (log10(CPM+1)); higher = more efficient recombination; sequences stand for … in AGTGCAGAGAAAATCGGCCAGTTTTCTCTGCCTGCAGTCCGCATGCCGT…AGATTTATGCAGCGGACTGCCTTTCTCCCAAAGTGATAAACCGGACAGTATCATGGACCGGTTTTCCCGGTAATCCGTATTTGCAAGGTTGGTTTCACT; site = the 11-nt target

In the examples that follow, each entry is paired with its recorded recombinant barcode read abundance (log10).
GGATACACTTGGGTTCTAACCTGTTGCCA (site GGATGCACTTG): 0.0123
GCGTCCTCTTGGGTTCTAACCTGTTGCTT (site TACCGTCCTCC): 0.0776
TTAGGGTCTTGGGTTCTAACCTGTTGCCT (site TTAGGGCCTAG): 1.17
CTACGTTCTTGGGTTCTAACCTGTTGCAC (site CTACGTTCTGT): 1.1
TGGACGACTTGGGTTCTAACCTGTTGCTT (site TGGACGACTAA): 0.592

Exercise: Would you kindly share the measured recombinant barcode read abundance (log10) for ACCCAGCCTTGGGTTCTAACCTGTTGCCT (site ACCCAGCCTAC) ?
Key: 1.27

Exercise: // recombinant barcode read abundance (log10) lookup, key: AGACATCCTTGGGTTCTAACCTGTTGCTT (site AGACCTCCTAA)
Key: 0.0971

Exercise: GET /values?readout=recombinant barcode read abundance (log10)&item= ACACCACCTTGGGTTCTAACCTGTTGCCT (site AGACCACCTAG)
Key: 0.179

Exercise: // lookup recombinant barcode read abundance (log10) for CTAGCCACTTGGGTTCTAACCTGTTGCTA (site CTAGCCACTTA)
Key: 1.01

Exercise: Consider the sequence CGTACCTCTTGGGTTCTAACCTGTTGCTG (site CGTACCTCTAA) and give its measured recombinant barcode read abundance (log10).
Key: 0.21

Exercise: I am curious: what recombinant barcode read abundance (log10) value has been reported for ATTGGGTCTTGGGTTCTAACCTGTTGCCT (site ATTGGGTCTAG) ?
Key: 0.818

Exercise: Quick one: recombinant barcode read abundance (log10) for GCACGAACTTGGGTTCTAACCTGTTGCCT (site GCGCGAACTAG) ?
Key: 0.0581

Exercise: Entry under review: TAGGCTGCTTGGGTTCTAACCTGTTGCAT (site TAGGCTGCTAT) . Reported recombinant barcode read abundance (log10)?
Key: 0.882

Exercise: # query: recombinant barcode read abundance (log10) of entry GGGAACCCTTGGGTTCTAACCTGTTGCTA (site GGGAACCCTCA)
Key: 0.132

Exercise: Endpoint output: recombinant barcode read abundance (log10) of GGTATGACTTGGGTTCTAACCTGTTGCCT (site AGTATGACTAG) . Value?
Key: 0.595

Exercise: Consider the sequence TAATGATCTTGGGTTCTAACCTGTTGCCT (site TACTGATCTAG) and give its measured recombinant barcode read abundance (log10).
Key: 0.0744

Exercise: May I ask what recombinant barcode read abundance (log10) has been recorded for GGTAAAGCTTGGGTTCTAACCTGTTGCCT (site GGTATAGCTAG) ?
Key: 0.216

Exercise: Which measured recombinant barcode read abundance (log10) value corresponds to AGATTGACTTGGGTTCTAACCTGTTGCCA (site AGATTCACTAG) ?
Key: 0.328

Exercise: Request the reported recombinant barcode read abundance (log10) associated with CTAGCCACTTGGGTTCTAACCTGTTGCTA (site CTAGCGACTCA)
Key: 0.38

Exercise: What recombinant barcode read abundance (log10) value was documented for this sequence, TTCATGTCTTGGGTTCTAACCTGTTGCCT (site TTCACGTCTAG) ?
Key: 0.0724

Exercise: Given the sequence ACATGTCCTTGGGTTCTAACCTGTTGCTT (site ACATGTCCTAT) , what is its reported recombinant barcode read abundance (log10)?
Key: 0.287
